Values were extracted from paper PMC6136660.

# Test system: white blood cells and subsets (lymphocytes, neutrophils, eosinophils)
# experiment description: Differential white blood cell counts (immune suppression), MAD
# Format: in vivo, human
# applied conditions: MAD 9.0 mg/kg; Day 1 predose, baseline; mean

smiles code | Eosinophils
C[C@@H]1C[C@H]2[C@@H]3CCC4=CC(=O)C=C[C@]4(C)C3=CC[C@]2(C)[C@@]1(O)C(=O)CO | 0.1 10^9/L

----------
# experiment description: SAD food effect cohort (8 mg/kg with high fat/high calorie meal) pharmacokinetics
# Assay type: in vivo, human
# applied conditions: human, plasma; single oral 8 mg/kg, fed; geometric mean (%CV); read-out: λz (converted)
reported endpoint: k el (s⁻¹)

compound | measurement units | readout number
C[C@@H]1C[C@H]2[C@@H]3CCC4=CC(=O)C=C[C@]4(C)C3=CC[C@]2(C)[C@@]1(O)C(=O)CO [vamorolone] | s⁻¹ | 8.19e-05
